target of assay: F508del (Homo sapiens, UniProt P13569, DEL508-508)
Construct: expressed in transfected cells
Sequence (P13569 with tags, fused parts or gaps DEL508-508): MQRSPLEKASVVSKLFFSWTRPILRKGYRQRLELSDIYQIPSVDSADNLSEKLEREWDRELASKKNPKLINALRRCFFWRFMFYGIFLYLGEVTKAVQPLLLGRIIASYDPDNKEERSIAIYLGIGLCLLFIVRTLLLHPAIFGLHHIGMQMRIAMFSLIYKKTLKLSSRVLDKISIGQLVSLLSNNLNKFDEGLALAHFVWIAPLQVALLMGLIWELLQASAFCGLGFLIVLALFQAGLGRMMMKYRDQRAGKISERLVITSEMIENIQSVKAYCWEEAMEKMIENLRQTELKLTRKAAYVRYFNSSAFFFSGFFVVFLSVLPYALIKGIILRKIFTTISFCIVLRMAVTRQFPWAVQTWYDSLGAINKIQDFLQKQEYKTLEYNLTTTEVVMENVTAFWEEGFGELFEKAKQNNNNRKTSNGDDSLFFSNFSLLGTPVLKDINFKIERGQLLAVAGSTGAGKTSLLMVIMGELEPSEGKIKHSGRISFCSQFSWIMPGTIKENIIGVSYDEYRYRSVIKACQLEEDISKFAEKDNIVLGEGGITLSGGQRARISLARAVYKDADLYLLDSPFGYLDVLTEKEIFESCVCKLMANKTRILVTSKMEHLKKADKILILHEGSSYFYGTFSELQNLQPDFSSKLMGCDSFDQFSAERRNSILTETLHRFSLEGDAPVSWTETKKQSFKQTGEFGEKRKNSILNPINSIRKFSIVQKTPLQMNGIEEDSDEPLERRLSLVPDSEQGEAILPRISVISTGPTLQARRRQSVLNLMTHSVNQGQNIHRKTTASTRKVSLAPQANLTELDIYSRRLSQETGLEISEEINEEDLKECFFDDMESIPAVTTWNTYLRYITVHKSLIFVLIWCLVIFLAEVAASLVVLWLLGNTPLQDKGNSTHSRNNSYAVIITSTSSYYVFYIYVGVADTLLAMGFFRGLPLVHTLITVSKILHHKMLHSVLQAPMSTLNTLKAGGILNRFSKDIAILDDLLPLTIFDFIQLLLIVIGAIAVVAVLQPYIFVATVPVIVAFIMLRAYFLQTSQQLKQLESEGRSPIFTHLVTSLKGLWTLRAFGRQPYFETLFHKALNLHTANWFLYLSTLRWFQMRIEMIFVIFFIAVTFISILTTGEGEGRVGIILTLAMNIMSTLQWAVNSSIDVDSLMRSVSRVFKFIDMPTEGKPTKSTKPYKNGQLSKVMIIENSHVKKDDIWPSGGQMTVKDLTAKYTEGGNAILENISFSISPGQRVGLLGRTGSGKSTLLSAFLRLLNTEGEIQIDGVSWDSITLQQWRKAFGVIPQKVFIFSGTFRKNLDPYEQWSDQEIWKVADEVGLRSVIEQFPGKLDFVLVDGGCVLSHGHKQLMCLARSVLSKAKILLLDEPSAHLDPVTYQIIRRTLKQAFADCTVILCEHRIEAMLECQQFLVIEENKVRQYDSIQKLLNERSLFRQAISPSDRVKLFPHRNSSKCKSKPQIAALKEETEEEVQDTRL
assay procedure: Protocol 1: membrane potential optical assay (FLIPR III, voltage sensing dye), identification of potentiator compounds
Assay type: cell-based
applied conditions: Table 3, compounds of Table 1
parameter: EC30

>  <molecule>
CCN(CC)c1cccc(-c2ccc(C(=O)NS(=O)(=O)c3cccc(N)n3)c(N3CC(C)CC3(C)C)n2)n1 (stereo not drawn) [Compound 1345]

>  <EC30>
+++ (“+++” means <3 uM)

$$$$
>  <molecule>
CC(C)COc1cc(F)cc(-c2cc(O)c(C(=O)NS(=O)(=O)c3cccc(N)n3)c(N3[C@H](C)CC[C@@H]3C)n2)c1 [Compound 1430]

>  <EC30>
+++ (“+++” means <3 uM)

$$$$
>  <molecule>
C[C@@H]1CC[C@H](C)N1c1nc(-c2cc(F)cc(OCC3CCC3)c2)ccc1C(=O)NS(=O)(=O)c1ccc[nH]c1=O [Compound 922]

>  <EC30>
+++ (“+++” means <3 uM)

$$$$
>  <molecule>
Cc1cc(C)c(Oc2nc(C3=CCC(C)CC3)ccc2C(=O)NS(=O)(=O)c2ccc[nH]c2=O)c(C)c1 (stereo not drawn) [Compound 1052]

>  <EC30>
+++ (“+++” means <3 uM)

$$$$

Your task in this section: give EC30 for each listed record.
1. [2H]C([2H])([2H])C([2H])(COc1ccn(-c2ccc(C(=O)NS(=O)(=O)c3cccnc3N)c(N3C[C@@H](C)CC3(C)C)n2)n1)C([2H])([2H])[2H] [Compound 1887]
2. CCOc1cccc2c1CN(Cc1c(C)cc(C)cc1C)C2(C)C(=O)NS(=O)(=O)c1ccc(N)cc1 (stereo not drawn) [Compound 1480]

A.
1: +++ (“+++” means <3 uM); 2: +++ (“+++” means <3 uM)

Your task in this section: give EC30 for each listed record.
1. CC(=O)N(C)C1CCN(S(=O)(=O)NC(=O)c2ccc(-c3cc(F)cc(OCC(C)C)c3)nc2N2CC(C)CC2(C)C)C1 (stereo not drawn) [Compound 1533]
2. CC(CO)COc1cc(F)cc(-c2ccc(C(=O)NS(=O)(=O)c3ccccc3)c(N3C[C@@H](C)CC3(C)C)n2)c1 (stereo partly drawn) [Compound 1515]
3. CCCc1ccc2c(c1)cc(C(=O)NS(=O)(=O)c1cccc(N)n1)n2Cc1c(C)cc(C)cc1C [Compound 1158]

A.
+++ (“+++” means <3 uM)
+++ (“+++” means <3 uM)
+++ (“+++” means <3 uM)

###

target of assay: F508del (Homo sapiens, UniProt P13569, DEL508-508)
Construct: expressed in transfected cells
assay procedure: Protocol 2: FRET membrane potential optical assay (VIPR), identification of correction compounds
Type: cell-based
applied conditions: Table 3; compounds of Table 1 as modulators of CFTR activity; protocol not stated
parameter: EC30

>  <compound>
CC(C)(C)c1cc(C(=O)NS(=O)(=O)c2ccccc2)n(Cc2cc(F)ccc2C(F)(F)F)n1

>  <recorded value>
+++ (“+++” means <3 uM)

$$$$
>  <compound>
CC(C)COc1cc(F)cc(-c2ccc(C(=O)NS(=O)(=O)c3cccc(=O)[nH]3)c(N3CCC(C)(C)CC3)n2)c1

>  <recorded value>
+++ (“+++” means <3 uM)

$$$$
>  <compound>
Cc1cccc(C)c1Oc1nc(C(F)(F)F)ccc1C(=O)NS(=O)(=O)c1cccc(N)c1

>  <recorded value>
+++ (“+++” means <3 uM)

$$$$
>  <compound>
CC(C)COc1cc(F)cc(-c2ccc(C(=O)NS(=O)(=O)c3cccc(N)n3)c(N3CC4CC4C3C(F)(F)F)n2)c1 (stereo not shown)

>  <recorded value>
+++ (“+++” means <3 uM)

$$$$

Your task in this section: give EC30 for each listed record.
1. CC(C)Oc1ccc(-c2ccc(C(=O)NS(=O)(=O)c3cccc(N)n3)c(N3C(C)CC(c4ccccc4)C3C)n2)cn1 (stereo not shown)
2. CC(C)Oc1ccc(-c2ccc(C(=O)NS(=O)(=O)c3cccc(N)n3)c(N3CCC[C@@H](C)C3)n2)cn1

A.
["+++ (“+++” means <3 uM)", "+++ (“+++” means <3 uM)"]

###

target of assay: F508del (Homo sapiens, UniProt P13569, DEL508-508)
Construct: expressed in transfected cells
assay procedure: Protocol 1: membrane potential optical assay (FLIPR III, voltage sensing dye), identification of potentiator compounds
Type: cell-based
applied conditions: Table 3, compounds of Table 1
parameter: EC30

Examples with their reported EC30 follow.
>  <compound>
CC(C)COc1cc(F)cc(-c2ccc(C(=O)NS(=O)(=O)c3cccc(N)c3)c(N3CCC(C)(C)CC3)n2)c1

>  <EC30>
+++ (“+++” means <3 uM)

$$$$
>  <compound>
CC(C)COc1cc(F)cc(-c2ccc(C(=O)NS(=O)(=O)c3cccc(N)n3)c(N3CCCC34CCC4)n2)c1

>  <EC30>
+++ (“+++” means <3 uM)

$$$$
>  <compound>
CC(C)COc1cc(F)cc(-c2ccc(C(=O)NS(=O)(=O)c3cccc(N)n3)c(N3CCC(C)(C)CC3)n2)c1

>  <EC30>
+++ (“+++” means <3 uM)

$$$$
>  <compound>
Cc1cc(C)c(Oc2nc(-c3cc(F)cc(F)c3)ccc2C(=O)NS(=O)(=O)c2cccc(N)n2)c(C)c1

>  <EC30>
+++ (“+++” means <3 uM)

$$$$
>  <compound>
CC(C)COc1cc(F)cc(-c2ccc(C(=O)NS(=O)(=O)c3cccc(N)n3)c(OC3CCCCC3C)n2)c1 (stereo not drawn)

>  <EC30>
+++ (“+++” means <3 uM)

$$$$

Your task in this section: give EC30 for each listed record.
1. C[C@@H]1CN(c2nc(N3C[C@@H](C)CC3(C)C)c(C(=O)NS(=O)(=O)c3cccc(N)n3)cc2F)C(C)(C)C1
2. Cc1cc(C)c(Oc2nc(-c3ccc(C)c(F)c3)ccc2C(=O)NS(=O)(=O)c2cccc(N)n2)c(C)c1
3. CC(C)(C)c1ccc(C(=O)NS(=O)(=O)c2cccc(N)n2)c(N2CCC(C3CC3)C2(C)C)n1 (stereo not drawn)
4. CC(C)COc1cc(F)cc(-c2ccc(C(=O)NS(=O)(=O)c3cccc(N)n3)c(N3CC(C)CCC3(C)C)n2)c1 (stereo not drawn)
5. C[C@@H]1CN(c2nc(C(C)(C)C)ccc2C(=O)NS(=O)(=O)c2ccc[nH]c2=O)C(C)(C)C1

A.
+++ (“+++” means <3 uM)
+++ (“+++” means <3 uM)
+++ (“+++” means <3 uM)
+++ (“+++” means <3 uM)
+++ (“+++” means <3 uM)

###

target of assay: F508del (Homo sapiens, UniProt P13569, DEL508-508)
Construct: expressed in transfected cells
assay procedure: Protocol 2: FRET membrane potential optical assay (VIPR), identification of correction compounds
Format: cell-based
applied conditions: Table 3; compounds of Table 1 as modulators of CFTR activity; protocol not stated
parameter: EC30

>  <chemical structure>
Cc1cc(C)c(Oc2nc(C(C)(C)C)ccc2C(=O)NS(=O)(=O)c2ccccc2C#N)c(C)c1

>  <target of assay>
F508del (Homo sapiens, UniProt P13569, DEL508-508)

>  <recorded value>
+++ (“+++” means <3 uM)

$$$$
>  <chemical structure>
COc1ccc(-c2ccc(C(=O)NS(=O)(=O)c3cc[nH]n3)c(Oc3c(C)cc(C)cc3C)n2)c(F)c1

>  <target of assay>
F508del (Homo sapiens, UniProt P13569, DEL508-508)

>  <recorded value>
+++ (“+++” means <3 uM)

$$$$
>  <chemical structure>
Cc1cc(C)c(Oc2nc(C3=CCC(C)(C)CC3)ccc2C(=O)NS(=O)(=O)c2ccc[nH]c2=O)c(C)c1

>  <target of assay>
F508del (Homo sapiens, UniProt P13569, DEL508-508)

>  <recorded value>
+++ (“+++” means <3 uM)

$$$$

###

target of assay: F508del (Homo sapiens, UniProt P13569, DEL508-508)
Construct: expressed in transfected cells
assay procedure: Protocol 1: membrane potential optical assay (FLIPR III, voltage sensing dye), identification of potentiator compounds
Format: cell-based
applied conditions: Table 3, compounds of Table 1

>  <compound>
CC(C)(C)c1ccc(C(=O)NS(=O)(=O)c2cccc(N)n2)c(N2CC3CC(C3)C2)n1 [Compound 1401]

>  <EC30>
+++ (“+++” means <3 uM)

$$$$
>  <compound>
C[C@@H]1CN(c2nc(-n3ccc(OCC(C)(C)C)n3)ccc2C(=O)NS(=O)(=O)c2cccc(N)n2)C(C)(C)C1 [Compound 1952]

>  <EC30>
+++ (“+++” means <3 uM)

$$$$

###

target of assay: F508del (Homo sapiens, UniProt P13569, DEL508-508)
Construct: expressed in transfected cells
assay procedure: Protocol 1: membrane potential optical assay (FLIPR III, voltage sensing dye), identification of potentiator compounds
Type: cell-based
applied conditions: Table 3, compounds of Table 1
parameter: EC30

>  <compound>
C[C@@H]1CN(c2nc(-c3ccccc3)ccc2C(=O)NS(=O)(=O)c2cccnc2N)C(C)(C)C1

>  <recorded value>
+++ (“+++” means <3 uM)

$$$$
>  <compound>
CC(C)Oc1ccc(-c2ccc(C(=O)NS(=O)(=O)c3cccc(N)n3)c(N3CCCC3C)n2)cn1 (stereo not shown)

>  <recorded value>
+++ (“+++” means <3 uM)

$$$$
>  <compound>
Cc1ccc(Oc2nc3c(cc2C(=O)NS(=O)(=O)c2cc[nH]n2)CCCC3(C)C)c(C)c1

>  <recorded value>
+++ (“+++” means <3 uM)

$$$$
